Some binders, each annotated with its measured % Change Compared to pH 7.4 + Calcium.
Target: T1, recombinant, soluble human ASGR-1 (human, UniProt P07306 62-291)
T1 construct: biotinylated in the binning assay; also called soluble huASGR-1; Soluble ASGR-1 (Amgen)
T1 sequence: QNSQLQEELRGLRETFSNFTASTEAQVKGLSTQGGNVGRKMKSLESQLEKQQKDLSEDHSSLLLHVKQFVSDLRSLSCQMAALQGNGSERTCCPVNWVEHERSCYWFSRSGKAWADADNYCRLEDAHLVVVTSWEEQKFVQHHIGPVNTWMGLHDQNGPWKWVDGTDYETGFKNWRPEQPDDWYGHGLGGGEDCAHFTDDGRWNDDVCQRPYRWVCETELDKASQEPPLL
Assay: Octet BLI dissociation, pH 5.6 minus calcium

binder: 199A7 (antibody, V domains shown, hybridoma mAb) VH: QVQLVESGGGVVQPGRSLRLSCAASGFTFSNYGMHWVRQAPGKGLEWVAIIWFDGSNKYYADSVKGRFTISRDNSKNTLFLQMSSLRAEDTAVYYCAREWLQFRYYYGMDVWGQGTTVTVSS VL: DIQMTQSPSSLSASVGDRVTITCRASQGIRKDLGWYQQKPGKAPKRLIYAASSLQSGVPSRFSGSGSGTEFTLTISSLQPEDFATYVCLQHYRYPFTFGPGTKVDFK
% Change Compared to pH 7.4 + Calcium: 10%
//
binder: 75G3 (antibody, V domains shown, hybridoma mAb) VH: QVQLQQWGAGLLKPSETLSLTCAVYGGSLSGSYWSWIRQPPGKGLEWIGEINLSGSTNYNPSLKSRVTISVDTSKSQFSLTLRSVTAADTAVYYCARDYGGLDYWGQGTLVTVSS VL: EIVLTQSPGTLSLSPGERATLSCRARQNVDSSYLAWYQQKPGQAPRLLIYGASSRATGIPDRFSGSGSGTDFTLTISRLEPEDFAVFYCQQYERSPWTFGQGTKVEIK
% Change Compared to pH 7.4 + Calcium: 2%
//
binder: 197E11 (antibody, V domains shown, hybridoma mAb) VH: QVQLVESGGGVVQPGRSLRLSCAASGFTFRNYGMHWVRQAPGKGLEWVAVIWFDGSNDYYADSVKGRFTISRDNSKNTLSLQMNSLRAEDTAVYYCARDRSVGYDGLDVWGQGTTVTVSS VL: DIQMTQSPSSLSASVGDRVTITCRASQGINKYLSWFQQKPGKAPKSLIYAASSVQSGVPSKFSGSGSGTDFTLTISRLQPDDFATYYGQRYDTYPFTFGPGTKVDIK
% Change Compared to pH 7.4 + Calcium: -4%
//
binder: 197G3 (antibody, V domains shown, hybridoma mAb) VH: QVQLVESGGGVVQPGRSLRLSCVASGFTFSSHGMHWVRQAPGKGLEWVAVIWYDGSNKNYADSVKGRFTISRDNSKNTLYLQMNSLRAEDTAVYYCARDPSVGYDGMDVWGQGTTVTVSS VL: DIQMTQSPSSLSASVGDRVTITCRASQGIGNHLAWFQQKPGKAPKSLIYAASSLQSGVPSKFSGSRSGTDFSLTISSLQPEDFATYYCQQYSNYPVTFGPGTKVDIK
% Change Compared to pH 7.4 + Calcium: -3%
//
binder: 210G10 (antibody, V domains shown, hybridoma mAb) VH: QVQLQESGPGLVKPSETLSLNCTVSGGSIRSYYWSWIRQPAGKGLEWIGRIYTSGSTDYNPSLKSRITMSVDTSKNQFSLKLSSVTAADTAVYYCARGFGDWDYWGQGTLVTVSS VL: DIQMTQSPSSLSASVGDRVTITFRTSQGIRNDLGWYQQQPGKTPKRMIYAASSLFSGVPSRFSGSRSGTDFTLTISSLQPEDFATYYCLQYNSYPPTFGQGTRLEIK
% Change Compared to pH 7.4 + Calcium: -5%
